- Measured Target: T1, cynomolgus soluble urokinase plasminogen activator receptor (suPAR) (cynomolgus, UniProt Q9GK78 23-303, limits assumed)
- T1 construct: Column head says only 'cynomologus'; also called cynomolgus suPAR; cynomolgus uPAR
- T1 sequence (Q9GK78 23-303 limits assumed): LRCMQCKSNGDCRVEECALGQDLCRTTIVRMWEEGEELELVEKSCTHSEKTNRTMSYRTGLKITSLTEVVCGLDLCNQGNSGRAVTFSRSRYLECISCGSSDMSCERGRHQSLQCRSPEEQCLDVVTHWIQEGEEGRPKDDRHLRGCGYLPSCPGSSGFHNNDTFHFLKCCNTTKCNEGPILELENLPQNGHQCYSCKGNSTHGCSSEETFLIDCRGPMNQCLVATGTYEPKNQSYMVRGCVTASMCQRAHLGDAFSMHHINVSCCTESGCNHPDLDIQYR
- Protocol: BLI (Octet) off-rate screen of scFv clones
# label = bin(measured koff), where bins are I = under 0.0002 s⁻¹, II = from 0.0002 s⁻¹ up to 0.0004 s⁻¹, III = 0.0004 s⁻¹ and over

Would you please look over these solved cases?
Binder	Class Label
suPAR_DB05_C06 (scFv, V domains shown, Screened as scFv) VH: QVQLVQSGAEVKKPGASVKVSCKASGFNIKSYYIHWVRQAPGQGLEWMGWIDPNSGGTNYAQKFQGRVTMTRDTSTSTVYMELSSLRSEDTAVYYCARGYDVDWFVYWGQGTLVTVSS VL: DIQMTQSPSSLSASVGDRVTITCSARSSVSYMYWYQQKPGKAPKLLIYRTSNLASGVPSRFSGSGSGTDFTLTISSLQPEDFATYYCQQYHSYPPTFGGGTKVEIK	I
suPAR_DB05_A06 (scFv, V domains shown, Screened as scFv) VH: QVQLVQSGAEVKKPGASVKVSCKASGYTFTSHYVHWVRQAPGQGLEWMGWIDHENGNTIYDQKFQGRVTMTRDTSTSTVYMELSSLRSEDTAVYYCARGYDVDWFVYWGQGTLVTVSS VL: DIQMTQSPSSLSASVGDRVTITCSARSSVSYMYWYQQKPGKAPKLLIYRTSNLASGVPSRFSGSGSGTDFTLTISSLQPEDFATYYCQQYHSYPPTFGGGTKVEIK	II
suPAR_DB04_H03 (scFv, V domains shown, Screened as scFv) VH: QVQLVQSGAEVKKPGASVKVSCKASGYTFTGNYLHWVRQAPGQGLEWMGWIDHSNGSTIYDQKFQGRVTMTRDTSTSTVYMELSSLRSEDTAVYYCARGSDVDWFVYWGQGTLVTVSS VL: DIQMTQSPSSLSASVGDRVTITCSASSSVSYMYWYQQKPGKAPKLLIYRTSNLASGVPSRFSGSGSGTDFTLTISSLQPEDFATYYCQQYHSYPPTFGGGTKVEIK	II
suPAR_DB05_D11 (scFv, V domains shown, Screened as scFv) VH: QVQLVQSGAEVKKPGASVKVSCKASGYTLTGYYMQWVRQAPGQGLEWMGWIDPENGSTIYDQKFQGRVTMTRDTSTSTVYMELSSLRSEDTAVYYCARGYDVDWFVYWGQGTLVTVSS VL: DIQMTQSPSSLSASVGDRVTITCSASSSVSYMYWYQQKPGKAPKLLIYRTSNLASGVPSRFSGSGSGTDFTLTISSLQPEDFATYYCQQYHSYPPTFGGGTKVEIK	III

Asked: Please report the category associated with suPAR_DB05_B02 (scFv, V domains shown, Screened as scFv) VH: QVQLVQSGAEVKKPGASVKVSCKASGYTIKDYYIHWVRQAPGQGLEWMGWIDPENGNTIYAQKFQGRVTMTRDTSTSTVYMELSSLRSEDTAVYYCARGYDVDWFVYWGQGTLVTVSS VL: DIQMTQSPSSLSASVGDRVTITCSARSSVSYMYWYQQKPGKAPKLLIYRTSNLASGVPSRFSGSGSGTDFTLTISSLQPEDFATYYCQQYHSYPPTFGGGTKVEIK , nothing else.
Given back: III

Asked: Which koff band matches suPAR_DB05_D08 (scFv, V domains shown, Screened as scFv) VH: QVQLVQSGAEVKKPGASVKVSCKASGYTFTRYYMHWVRQAPGQGLEWVGWIDPHSGGTNYAQKFQGRVTMTRDTSTSTVYMELSSLRSEDTAVYYCARGYDIDWFVYWGQGTLVTVSS VL: DIQMTQSPSSLSASVGDRVTITCSARQSVSYMYWYQQKPGKAPKLLIYRTSNLASGVPSRFSGSGSGTDFTLTISSLQPEDFATYYCQQYHSYPPTFGGGTKVEIK ?
Given back: I

Asked: Form field 'band' for suPAR_DB05_C03 (scFv, V domains shown, Screened as scFv) VH: QVQLVQSGAEVKKPGASVKVSCKASGYTFTNYYMHWVRQAPGQGLEWMGWIDHEGGNTSYAQKFQGRVTMTRDTSTSTVYMELSSLRSEDTAVYYCARGYDVDWFVYWGQGTLVTVSS VL: DIQMTQSPSSLSASVGDRVTITCRARSSVSYMYWYQQKPGKAPKLLIYRTSNLASGVPSRFSGSGSGTDFTLTISSLQPEDFATYYCQQYHSYPPTFGGGTKVEIK
Given back: III

Asked: Into which category would you place suPAR_DB05_C04 (scFv, V domains shown, Screened as scFv) VH: QVQLVQSGAEVKKPGASVKVSCKASGFNIKDYYIHWVRQAPGQGLEWMGWIDPENGNTIYDQKFQGRVTMTRDTSTSTVYMELSSLRSEDTAVYYCARGYDVDWFVYWGQGTLVTVSS VL: DIQMTQSPSSLSASVGDRVTITCSARQSVSYMYWYQQKPGKAPKLLIYRTSNLQSGVPSRFSGSGSGTDFTLTISSLQPEDFATYYCQQYHSYPPTFGGGTKVEIK ?
Given back: III

Asked: Lab log: suPAR_DB05_B12 (scFv, V domains shown, Screened as scFv) VH: QVQLVQSGAEVKKPGASVKVSCKASGYTFTNYYMHWVRQAPGQGLEWMGWIDPENGNTIYAQKFQGRVTMTRDTSTSTVYMELSSLRSEDTAVYYCARGYDVDWFVYWGQGTLVTVSS VL: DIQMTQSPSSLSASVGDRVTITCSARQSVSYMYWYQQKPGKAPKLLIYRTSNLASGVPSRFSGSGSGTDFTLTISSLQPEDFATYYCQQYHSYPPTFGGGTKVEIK — assign koff category
Given back: II

Data origin: patent US20250215104A1
